- System: SK-OV-3 multi-cell spheroids, viability
- assay notes: Anticancer human tumor SK-OV-3 cell line growth inhibition [IpAb]; active means viability on the fitted dose curve at most 10% of control; inactive means the rest;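 further: viability read after seven days of drug exposure; percent of DMSO vehicle control luminescence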
- condition label: second compound 0.0316 µM; first compound 0.316 µM
- Description: Combinatorial screen of targeted agents with ipatasertib and abemaciclib in multi-cell type tumor spheroids […] Compounds. […] If the clinical Cmax for an agent had not been determined, the highest concentration tested was 10 microM. NCI60 Cell Culture. […] The optimal seeding densities for each of the cell lines at each time point assessed were determined prior to performing the concentration response studies. […]
Outcomes you can answer with include only these: T for active, F for inactive

[Q] Could you kindly confirm the outcome this assay logged for Cc1nc(NC(=O)N2CCCC2C(N)=O)sc1-c1ccnc(C(C)(C)C(F)(F)F)c1 (stereo not drawn) + CCN1CCN(Cc2ccc(Nc3ncc(F)c(-c4cc(F)c5nc(C)n(C(C)C)c5c4)n3)nc2)CC1 ?
[A] F

[Q] Request: Cn1nccc1Nc1nccc(-c2ccn(C(CO)c3ccc(Cl)c(F)c3)c(=O)c2)n1 (stereo not drawn) + CCN1CCN(Cc2ccc(Nc3ncc(F)c(-c4cc(F)c5nc(C)n(C(C)C)c5c4)n3)nc2)CC1
[A] F

[Q] Request: Cn1ncc(Cl)c1-c1cc(C(=O)NC(CN)Cc2cccc(F)c2)sc1Cl (stereo not drawn) + CCN1CCN(Cc2ccc(Nc3ncc(F)c(-c4cc(F)c5nc(C)n(C(C)C)c5c4)n3)nc2)CC1
[A] F

[Q] Request: CC1(C)CCC(CN2CCN(c3ccc(C(=O)NS(=O)(=O)c4ccc(NCC5CCOCC5)c([N+](=O)[O-])c4)c(Oc4cnc5[nH]ccc5c4)c3)CC2)=C(c2ccc(Cl)cc2)C1 + CCN1CCN(Cc2ccc(Nc3ncc(F)c(-c4cc(F)c5nc(C)n(C(C)C)c5c4)n3)nc2)CC1
[A] F

[Q] Request: CCCS(=O)(=O)Nc1ccc(F)c(C(=O)c2c[nH]c3ncc(-c4ccc(Cl)cc4)cc23)c1F + CCN1CCN(Cc2ccc(Nc3ncc(F)c(-c4cc(F)c5nc(C)n(C(C)C)c5c4)n3)nc2)CC1
[A] F

[Q] Request: C=CC(=O)N1CCN(c2nc(=O)n(-c3c(C)ccnc3C(C)C)c3nc(-c4c(O)cccc4F)c(F)cc23)C(C)C1 (stereo not drawn) + CCN1CCN(Cc2ccc(Nc3ncc(F)c(-c4cc(F)c5nc(C)n(C(C)C)c5c4)n3)nc2)CC1
[A] F

[Q] Request: COc1c(OCCCN2CCOCC2)ccc2c3n(c(=NC(=O)c4cnc(N)nc4)nc12)CCN3 + CCN1CCN(Cc2ccc(Nc3ncc(F)c(-c4cc(F)c5nc(C)n(C(C)C)c5c4)n3)nc2)CC1
[A] T

[Q] Request: C=CCn1c(=O)c2cnc(Nc3ccc(N4CCN(C)CC4)cc3)nc2n1-c1cccc(C(C)(C)O)n1 + CCN1CCN(Cc2ccc(Nc3ncc(F)c(-c4cc(F)c5nc(C)n(C(C)C)c5c4)n3)nc2)CC1
[A] F

* * *

- Test system: SK-OV-3 multi-cell spheroids, viability
- assay notes: Anticancer human tumor SK-OV-3 cell line growth inhibition [IpAb]; active = viability on the fitted dose curve at most 10% of control; inactive = the rest;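 further: viability read after seven days of drug exposure; percent of DMSO vehicle control luminescence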
- condition label: second compound 0.01 µM; first compound 1 µM
Outcomes you can answer with include only these: yes (1) for active, no (0) for inactive

[Q] Could you kindly confirm the outcome this assay logged for C=CC(=O)N1CCN(c2nc(=O)n(-c3c(C)ccnc3C(C)C)c3nc(-c4c(O)cccc4F)c(F)cc23)C(C)C1 (stereo not drawn) + CCN1CCN(Cc2ccc(Nc3ncc(F)c(-c4cc(F)c5nc(C)n(C(C)C)c5c4)n3)nc2)CC1 ?
[A] no (0)

[Q] Request: CC1(C)CCC(CN2CCN(c3ccc(C(=O)NS(=O)(=O)c4ccc(NCC5CCOCC5)c([N+](=O)[O-])c4)c(Oc4cnc5[nH]ccc5c4)c3)CC2)=C(c2ccc(Cl)cc2)C1 + CCN1CCN(Cc2ccc(Nc3ncc(F)c(-c4cc(F)c5nc(C)n(C(C)C)c5c4)n3)nc2)CC1
[A] no (0)

[Q] Request: C=CCn1c(=O)c2cnc(Nc3ccc(N4CCN(C)CC4)cc3)nc2n1-c1cccc(C(C)(C)O)n1 + CCN1CCN(Cc2ccc(Nc3ncc(F)c(-c4cc(F)c5nc(C)n(C(C)C)c5c4)n3)nc2)CC1
[A] yes (1)
